Each recorded value in this set is attributed to ChEMBL document CHEMBL4765446.

- Test system: Staphylococcus aureus
- test_protocol: Antibacterial activity against methicillin-resistant Staphylococcus aureus BAA-1556 by broth microdilution method
- Assay type: functional
Let's look at some compounds and their measured MIC.

>>> print(df.to_string())
                                   compound  value_type    result
0  CC(O)CSc1nc(N)c2nnn([C@@H]3C[C@H](O)[C@@H](O)[C@H]3O)c2n1 (stereo partly specified)         MIC  > 200 µM
1  CSc1nc(N[C@@H]2C[C@H]2c2ccc(F)c(F)c2)c2nnn(C)c2n1         MIC  > 200 µM
2  CCn1nnc2c(N[C@@H]3C[C@H]3c3ccc(F)c(F)c3)nc(SC)nc21         MIC  > 200 µM
3  CCCSc1nc(N[C@@H]2C[C@H]2c2ccc(F)c(F)c2)c2nnn([C@@H]3C[C@H](OCCO)[C@@H](O)[C@H]3O)c2n1         MIC     25 µM
4  OCCCSc1nc(N[C@@H]2C[C@H]2c2ccc(F)c(F)c2)c2nnn([C@@H]3C[C@H](O)[C@@H](O)[C@H]3O)c2n1         MIC  > 200 µM

Note: attention shifts to another entry.
query: Tell me its MIC given "CCCSc1nc(NC2CC2)c2nnn([C@@H]3C[C@H](OCCO)[C@@H](O)[C@H]3O)c2n1" as the entry.
result: > 200 µM
